The reported numbers originate from patent US20250163072A1.

TEST TARGET: KRAS G12C-BRAF complex (Homo sapiens (Human), UniProt P01116+P62937, G12C)
Sequence (P01116-2 other isoform, or with tags, fused parts or gaps G12C): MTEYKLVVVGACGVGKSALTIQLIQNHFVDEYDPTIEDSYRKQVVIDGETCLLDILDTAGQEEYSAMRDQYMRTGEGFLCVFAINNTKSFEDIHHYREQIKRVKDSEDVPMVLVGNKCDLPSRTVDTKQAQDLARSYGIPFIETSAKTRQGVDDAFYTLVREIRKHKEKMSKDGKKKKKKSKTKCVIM
Sequence (P62937 whole entry): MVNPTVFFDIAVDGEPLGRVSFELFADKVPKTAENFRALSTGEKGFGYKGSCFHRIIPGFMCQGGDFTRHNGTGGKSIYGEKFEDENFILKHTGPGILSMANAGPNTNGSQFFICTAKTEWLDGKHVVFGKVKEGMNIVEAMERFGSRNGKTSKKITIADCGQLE
ASSAY METHOD TEXT: KRAS G12C-BRAF NanoBit assay
Format: cell-based
CONDITIONS USED: HEK293 cells, SmBit-KRAS G12C and BRAF RBD-LgBit, 3 hours incubation
compounds and their reported IC50

Sample answers from the record:
CO[C@@H](C)c1ncc(N2CCN(C)CC2)cc1-c1c2c3cc(ccc3n1CC(F)(F)F)-c1csc(n1)C[C@H](NC(=O)[C@H](C(C)C)N1CCCC3(CCN(C(=O)[C@H](F)Cl)C3)C1=O)C(=O)N1CCC[C@H](N1)C(=O)OCC(C)(C)C2 (stereo partly shown) : 21 nM
CCn1c(-c2cc(N3CCN(C)CC3)cnc2[C@H](C)OC)c2c3cc(ccc31)-c1csc(n1)C[C@H](NC(=O)[C@H](C(C)C)N1CCCC3(CCN(C(=O)[C@H](F)Cl)C3)C1=O)C(=O)N1CCC[C@H](N1)C(=O)OCC(C)(C)C2 (stereo partly shown) : 20 nM
CCn1c(-c2cc(N3CCN(C)CC3)cnc2[C@H](C)OC)c2c3cc(ccc31)-c1csc(n1)C[C@H](NC(=O)[C@H](C(C)C)N(C)C(=O)[C@H]1CCN(C(=O)[C@H](F)Cl)C1)C(=O)N1CCCC(N1)C(=O)OCC(C)(C)C2 (stereo partly shown) : 21 nM

We next turn to a different compound, shown below.
Entry under test: CO[C@@H](C)c1ncc(N2CCOCC2)cc1-c1c2c3cc(ccc3n1CC(F)(F)F)-c1csc(n1)C[C@H](NC(=O)[C@H](C(C)C)N(C)C(=O)[C@H]1CCN(C(=O)[C@H](F)Cl)C1)C(=O)N1CCC[C@H](N1)C(=O)OCC(C)(C)C2 (atropisomer, axis not shown; (M)) . Its IC50 was 20 nM
